Each item that follows carries a reported abundance fitness.
B1: Protein piccolo, residues 1058 to 1114; numbered along this chain, Q9Y6V0 (parent)
chain: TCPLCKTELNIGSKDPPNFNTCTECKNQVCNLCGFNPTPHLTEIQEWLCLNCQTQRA

# Variants of: B1
# Protocol description: abundance fitness (aPCA) (normalised: wild type 0, dead -1); higher = more abundant; growth selection in yeast, the domain comes from the species named
# Test context: Homo sapiens
Just the number.

Solved cases (5 shown):
- Variant label: "Q28H"
  abundance fitness: -0.206
- Variant label: "L41I"
  abundance fitness: 0.188
- Variant label: "P16H"
  abundance fitness: 0.009
- Variant label: "C5H"
  abundance fitness: -0.142
- Variant label: "E24C"
  abundance fitness: -0.706

Now for the variant whose abundance fitness we want.
Could you tell me which abundance fitness is on file for "N27R" ?
0.106
